All values here come from patent EP0434364A2.

# Tested target: Gastrin Receptor (Cavia porcellus, UniProt H0VZC5)
# Construct: The washed guinea pig gastric glands prepared as above were resuspended; from tissue; host or cells: guinea pig gastric mucosal glands (intact glands after collagenase)
# Sequence (H0VZC5 1-426): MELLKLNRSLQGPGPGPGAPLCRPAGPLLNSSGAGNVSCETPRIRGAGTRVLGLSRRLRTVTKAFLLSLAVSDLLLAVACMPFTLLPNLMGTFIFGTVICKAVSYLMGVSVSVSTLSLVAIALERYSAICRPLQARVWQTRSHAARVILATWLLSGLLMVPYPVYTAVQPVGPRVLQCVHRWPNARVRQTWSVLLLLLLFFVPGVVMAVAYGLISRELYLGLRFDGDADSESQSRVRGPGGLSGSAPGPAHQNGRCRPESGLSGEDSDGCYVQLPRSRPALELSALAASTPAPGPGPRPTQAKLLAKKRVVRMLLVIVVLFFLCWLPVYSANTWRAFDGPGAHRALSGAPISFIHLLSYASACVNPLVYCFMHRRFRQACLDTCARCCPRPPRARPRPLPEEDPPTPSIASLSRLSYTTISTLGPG
# Test details: Gastrin Receptor Binding in Guinea Pig Gastric Glands (125I-gastrin)
Threshold-based label: IC50 under 90 nM gives YES, IC50 not under 90 nM gives NO.

CN1C(=O)[C@H](NC(=O)Nc2cc3c(cn2)[nH]c2ccccc23)N=C(c2ccccc2)c2ccccc21 ... NO
CN1C(=O)C(NC(=O)c2cc3ccccc3[nH]2)N=C(c2ccccn2)c2ccccc21 (racemic) ... NO
CN1C(=O)C(NC(=O)c2cc3ccccc3[nH]2)N=C(c2ccncc2)c2ccccc21 (racemic) ... NO
Cc1cccc(NC(=O)NC2N=C(c3ccccn3)c3ccccc3N(CC(C)C)C2=O)c1 (racemic) ... YES

====

# Tested target: CCK Receptor (Pancreas) (Rattus norvegicus, UniProt P30551)
# Construct: The whole pancreas was dissected free of fat tissue and was homogenized; from tissue; host or cells: rat whole pancreas membranes
# Sequence (P30551 1-444): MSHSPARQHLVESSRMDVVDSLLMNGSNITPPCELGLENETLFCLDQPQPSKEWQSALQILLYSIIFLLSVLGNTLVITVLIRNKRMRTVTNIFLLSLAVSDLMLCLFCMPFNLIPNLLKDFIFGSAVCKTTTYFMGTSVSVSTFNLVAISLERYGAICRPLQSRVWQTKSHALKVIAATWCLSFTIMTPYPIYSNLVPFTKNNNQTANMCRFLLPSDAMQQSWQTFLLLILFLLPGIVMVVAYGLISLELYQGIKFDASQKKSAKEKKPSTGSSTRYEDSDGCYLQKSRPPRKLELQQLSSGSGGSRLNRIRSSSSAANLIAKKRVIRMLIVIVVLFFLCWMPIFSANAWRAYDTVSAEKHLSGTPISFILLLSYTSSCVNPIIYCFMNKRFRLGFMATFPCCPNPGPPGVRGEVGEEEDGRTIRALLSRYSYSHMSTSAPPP
# Test details: CCK Receptor Binding (Pancreas), inhibition of 125I-CCK-33 binding
# Design: species or system Sprague-Dawley rats
The compounds listed here are annotated with their IC50.
Readout type: IC50 (nM)

CN1C(=O)C(NC(=O)c2cc3ccccc3[nH]2)N=C(c2ccccn2)c2ccccc21 (racemic) ... 0.37
CN1C(=O)[C@H](NC(=O)Nc2cc3c(cn2)[nH]c2ccccc23)N=C(c2ccccc2)c2ccccc21 ... 4.4
Cc1cccc(NC(=O)NC2N=C(c3ccccn3)c3ccccc3N(CC(C)C)C2=O)c1 (racemic) ... 490

====

# Tested target: CCK Receptor (Pancreas) (Rattus norvegicus, UniProt P30551)
# Construct: The whole pancreas was dissected free of fat tissue and was homogenized; from tissue; host or cells: rat whole pancreas membranes
# Sequence (P30551 1-444): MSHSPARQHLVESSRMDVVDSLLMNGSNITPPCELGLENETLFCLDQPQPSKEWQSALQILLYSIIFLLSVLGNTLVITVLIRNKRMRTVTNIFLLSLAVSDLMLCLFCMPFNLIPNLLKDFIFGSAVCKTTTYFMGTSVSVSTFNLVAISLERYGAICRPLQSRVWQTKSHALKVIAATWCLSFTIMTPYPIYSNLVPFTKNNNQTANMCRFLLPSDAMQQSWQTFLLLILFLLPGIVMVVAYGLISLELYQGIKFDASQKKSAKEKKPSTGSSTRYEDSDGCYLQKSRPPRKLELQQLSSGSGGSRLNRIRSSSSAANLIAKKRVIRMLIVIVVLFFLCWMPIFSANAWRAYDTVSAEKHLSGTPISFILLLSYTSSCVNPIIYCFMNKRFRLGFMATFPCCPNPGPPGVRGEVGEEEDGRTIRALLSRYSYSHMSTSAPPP
# Test details: CCK Receptor Binding (Pancreas), inhibition of 125I-CCK-33 binding
# Parameters: species or system Sprague-Dawley rats
# Applied conditions: rat pancreas membranes, 125I-CCK-33, 37°C 30 minutes; read-out: IC50(µM) 125I-CCK Pancreas
Readout type: IC50 (µM)

Cc1cccc(NC(=O)N[C@@H]2N=C(c3ccccc3)c3ccccc3N(C)C2=O)c1 ... 0.28
